# System: Human immunodeficiency virus 1
# MEASUREMENT NOTES: Inhibition of HIV-1 (IIIB) cytopathicity in human peripheral blood mononuclear cells.
# Format: functional, organism-based
Each entry below carries its recorded pEC50.
Here pEC50 is given on a logarithmic scale as minus log10 of the concentration in mol/L.

COMPOUND | pEC50
Cc1cn(C2CC(N=[N+]=[N-])C(COC(=O)OCCCCO)O2)c(=O)[nH]c1=O (configuration not stated) | 9.11

Could you now look at the following compound, please?
Provide value of pEC50 for this record tested with Human immunodeficiency virus 1: `Cc1cn([C@H]2C[C@H](N=[N+]=[N-])[C@@H](CO)O2)c(=O)[nH]c1=O` 8.12
